Target: Neuronal acetylcholine receptor; alpha4/beta4 (Rattus norvegicus) (UniProt P09483+P12392)
Assay Method Text: Antagonist activity at rat alpha4beta4 nAChR expressed in xenopus oocytes assessed as inhibition of Ach- induced response at 10 uM at -70 mV holding potential preincubated for 5 mins followed by Ach stimulation by voltage-clamp based electrophysiological method
Format: cell-based
Details: Oocyte
The source made the active and inactive calls. The calls are words filed in the database; no cut-off is given here. Where a SMILES comes first, the peptide text is derived from it. Bridges are numbered along the chain shown (N, C = ends).

[
  {
    "Molecule": "C[C@@H]1NC(=O)[C@@H]2CSSC[C@H](NC(=O)CN)C(=O)N[C@@H](CSSC[C@@H](C(N)=O)NC(=O)[C@H](Cc3cnc[nH]3)NC(=O)[C@H](CCC(=O)O)NC(=O)[C@H](Cc3cnc[nH]3)NC1=O)C(=O)N[C@@H](CO)C(=O)N[C@@H](CC(N)=O)C(=O)N1CCC[C@H]1C(=O)N1CCC[C@H]1C(=O)N2 (H-GCCSNPPCAHEHC-NH2; disulfide 2-8, 3-13)",
    "inhibition": "inactive"
  },
  {
    "Molecule": "C[C@@H]1NC(=O)[C@@H]2CSSC[C@H](NC(=O)[C@@H](N)CCC(N)=O)C(=O)N[C@@H](CSSC[C@@H](C(=O)N[C@@H](CCCNC(=N)N)C(=O)O)NC(=O)[C@H](Cc3cnc[nH]3)NC(=O)[C@H](CCC(=O)O)NC(=O)[C@H](Cc3cnc[nH]3)NC1=O)C(=O)N[C@@H](CO)C(=O)N[C@@H](CC(N)=O)C(=O)N1CCC[C@H]1C(=O)N1CCC[C@H]1C(=O)N2 (H-QCCSNPPCAHEHCR-OH; disulfide 2-8, 3-13)",
    "inhibition": "inactive"
  },
  {
    "Molecule": "C[C@@H]1NC(=O)[C@@H]2CSSC[C@H](NC(=O)[C@@H](N)CCC(N)=O)C(=O)N[C@@H](CSSC[C@@H](C(N)=O)NC(=O)[C@H](Cc3cnc[nH]3)NC(=O)[C@H](CCC(=O)O)NC(=O)[C@H](Cc3cnc[nH]3)NC1=O)C(=O)N[C@@H](CO)C(=O)N[C@@H](CC(N)=O)C(=O)N1CCC[C@H]1C(=O)N1CCC[C@H]1C(=O)N2 (H-QCCSNPPCAHEHC-NH2; disulfide 2-8, 3-13)",
    "inhibition": "inactive"
  },
  {
    "Molecule": "C[C@@H]1NC(=O)[C@@H]2CSSC[C@H](NC(=O)CN)C(=O)N[C@@H](CSSC[C@@H](C(=O)N[C@@H](CCCNC(=N)N)C(=O)O)NC(=O)[C@H](Cc3cnc[nH]3)NC(=O)[C@H](CCC(=O)O)NC(=O)[C@H](Cc3cnc[nH]3)NC1=O)C(=O)N[C@@H](CO)C(=O)N[C@@H](CC(N)=O)C(=O)N1CCC[C@H]1C(=O)N1CCC[C@H]1C(=O)N2 (H-GCCSNPPCAHEHCR-OH; disulfide 2-8, 3-13)",
    "inhibition": "inactive"
  }
]

The reported measurements were obtained from ChEMBL document CHEMBL5055626.
